- ASSAY_SYSTEM: SARS-CoV spike (S) (SARS-CoV, UniProt P59594 14-1195)
- ASSAY_PROTOCOL: SPR, VHH over immobilised S

BINDER: NRCoV2-S2G4 VHH (VHH) VHH: QVQLVQSGGGLVQAGGSLTLSCAPSGSTFSGYATNWYRQAPGKQRELVATISSDGDKNYADSVKGRFTISRDNAKNTVYLQMNSLKPEDTAVYYCNKHWWTGDWWGQGTQVTVSS
kon (M⁻¹ s⁻¹): 920000
--
BINDER: NRCoV2-MRed18 VHH (VHH) VHH: EVQLVESGGGLVQPGGSLRLSCAASTTVFGRNAMGWYRQAPGKERELVATVSDGGTPNYADSVKGRFTISRDNAKNTIYLQMNSLEPEDTAVYYCNYYNYYYGRNFWGQGTQVTVSS
kon (M⁻¹ s⁻¹): 300000
--
BINDER: NRCoV2-MRed04 VHH (VHH) VHH: EVQLVESGGGLVQPGRSLRLSCAASGNSFSISTMGWFRQAPGKERELVASIWSDTTTSYADSVKGRFTISTDNTRTKVYLQMSSLNPEDTAVYYCAADRGFVVRGQYDYWGQGTQVTVSS
kon (M⁻¹ s⁻¹): 323000
--
BINDER: NRCoV2-MRed25 VHH (VHH) VHH: EVQLVESGGGLVQAGGSLRLSCAASGHTFSRYGMGWFRQAPGKEREFVAAISWRGDSTYYRDSVNGRFTISRDNAKNTVYLGMNSLKPEDTAVYYCAAEMWGTATIVASRYTYWGQGTQVTVSS
kon (M⁻¹ s⁻¹): 21800
